- study_target: T1, Recombinant 15N-labelled CypA (UniProt P62937 1-165, 15N-labelled)
- T1 construct: Cyclophilin A (CypA), peptidyl-prolyl cis-trans isomerase; also called 15N-CypA; source: recombinant, produced and purified as described previously [18]
- assay_protocol: NMR titration; 15N-labelled CypA (100 µM) mixed with increasing concentrations of unlabelled peptide (0 to 2.5 mM); 1H,15N HSQC at each step; KD fitted from combined chemical shift perturbations
- experimental_setup: both partners purified
measurement_type: Kd (µM)
Numbers only; they are read as µM.

>  <binder>
KFPRAMPIWARPEYNPPLLE (numbers count on: NS5A itself; also called D320E peptide; Pep-D320E peptide; source: synthetic peptide, bought: Neosystems (Strasbourg, France), purity greater than 95%) [Pep-D320E (residues 308-327 of NS5A from HCV GT1b Con1 with D320E)]

>  <Kd [µM]>
1230

$$$$

Field: next binder
*Q* Report Kd for KFPRAMPIWARPDYNPPLLE (NS5A domain II of hepatitis C virus genotype 1b (Con1), residues 308-327; numbers count on: NS5A itself; also called WT peptide; Pep-WT peptide; source: synthetic peptide, bought: Neosystems (Strasbourg, France), purity greater than 95%) [Pep-WT (residues 308-327 of NS5A from HCV GT1b Con1)] please.
*A* 802

These measurements were taken from paper PMC2965138.
